Molecular target: endothelin receptor (membrane of smooth muscle tissue of porcine aorta) (Sus scrofa)
Construct: from tissue; host or cells: smooth muscle tissue of porcine aorta (membrane fraction)
Sequence (Q29010 21-427): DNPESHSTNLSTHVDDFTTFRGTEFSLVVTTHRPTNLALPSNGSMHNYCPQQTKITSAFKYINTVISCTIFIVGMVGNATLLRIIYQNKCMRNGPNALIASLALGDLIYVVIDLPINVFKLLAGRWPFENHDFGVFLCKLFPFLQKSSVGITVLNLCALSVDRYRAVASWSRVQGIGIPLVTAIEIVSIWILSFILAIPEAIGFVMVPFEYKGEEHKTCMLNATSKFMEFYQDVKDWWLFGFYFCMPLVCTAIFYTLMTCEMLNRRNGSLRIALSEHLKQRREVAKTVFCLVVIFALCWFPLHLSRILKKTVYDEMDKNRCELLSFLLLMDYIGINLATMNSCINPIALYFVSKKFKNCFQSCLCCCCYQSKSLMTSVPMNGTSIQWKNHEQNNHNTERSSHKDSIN
Experiment: Endothelin binding inhibition test (125I-endothelin-1, porcine aorta smooth muscle membrane)
Conditions: 1.1 μM of the test compound; porcine aorta smooth muscle membrane; 25° C, 4 hours; read-out: 125I-endothelin-1 binding inhibition, Inhibition (%)
Numbered stars: 1 amine (or outer) side, 2 acyl side, 3 side chain; on linkers, the order of the positions; unused ones are H or OH. Square brackets hold non-standard residues; d marks the D form. Peptide text beside a SMILES is read from it. X3 = NC(=O)Cn1cc(C[C@@H](N[*:1])C(=O)[*:2])c2ccccc21; X4 = O=C1Nc2ccccc2C1C[C@@H](N[*:1])C(=O)[*:2]; dGly(2-thienyl) = N[C@@H](C(=O)O)c1cccs1; dGly(cPent) = N[C@@H](C(=O)O)C1CCCC1; Hyp = O=C(O)[C@@H]1C[C@@H](O)CN1; dCya = N[C@H](CS(=O)(=O)O)C(=O)O; NMeM = CN[C@@H](CCSC)C(=O)O; Pip = O=C(O)[C@@H]1CCCCN1; dNva = CCC[C@@H](N)C(=O)O; NMeA = CN[C@@H](C)C(=O)O; Thz = O=C(O)[C@@H]1CSCN1
# binarize inhibition at 1.1 µM: threshold 70% inclusive, high side Fulfilled, low side Not fulfilled

## Task Check the entry CC(C)C[C@@H]1NC(=O)[C@@H](C(C)C)NC(=O)[C@@H]2CCCN2C(=O)[C@@H](CC(=O)O)NC(=O)[C@@H](Cc2cn(CC(N)=O)c3ccccc23)NC1=O [Example 91] (cyclo(L[X3][dD]P[dV])) : does inhibition at 1.1 µM equal or exceed 70%?
## Result Not fulfilled

## Task Could you please find out whether CC(C)C[C@@H]1NC(=O)[C@@H](C(C)C)NC(=O)[C@H](Cc2c[nH]c3ccccc23)NC(=O)[C@@H](CC(=O)O)NC(=O)[C@@H](Cc2c[nH]c3ccccc23)NC1=O [Example 17, cyclo(-DTrp-DAsp-Trp-DVal-Leu-)] (cyclo(L[dW][dD]W[dV])) has inhibition at 1.1 µM that meets 70% or exceeds it?
## Result Fulfilled

## Task Reported inhibition at 1.1 µM at or above 70%? CC(C)C[C@@H]1NC(=O)[C@@H](C(C)C)NC(=O)[C@@H]2CSCN2C(=O)[C@@H](CC(=O)O)NC(=O)[C@@H](Cc2c[nH]c3ccccc23)NC1=O [Example 68, cyclo(-DTrp-DAsp-Thz-DVal-Leu-)] (cyclo(L[dW][dD][Thz][dV]))
## Result Fulfilled

## Task # check: inhibition at 1.1 µM of CC(C)C[C@@H]1NC(=O)[C@@H](C(C)C)NC(=O)[C@@H]2CCCCN2C(=O)[C@@H](CC(=O)O)NC(=O)[C@@H](Cc2c[nH]c3ccccc23)NC1=O [Example 47, cyclo(-DTrp-DAsp-Pip-DVal-Leu-)] (cyclo(L[dW][dD][Pip][dV])) is greater than or equal to 70%
## Result Fulfilled

## Task Item CC(C)C[C@@H]1NC(=O)[C@@H](C(C)C)NC(=O)[C@H](C)NC(=O)[C@@H](CCC(=O)O)NC(=O)[C@@H](Cc2c[nH]c3ccccc23)NC1=O [Example 7, cyclo(-DTrp-DGlu-Ala-DVal-Leu-)] (cyclo(A[dV]L[dW][dE])) with inhibition at 1.1 µM of 70% or above?
## Result Not fulfilled

## Task # check: inhibition at 1.1 µM of CC(C)C[C@@H]1NC(=O)[C@@H](C(C)C)NC(=O)[C@H](C)N(C)C(=O)[C@@H](CC(=O)O)NC(=O)[C@@H](CC2C(=O)Nc3ccccc32)NC1=O (stereo partly drawn) [Example 89, cyclo(-DTrp(O)-DAsp-MeAla-DVal-Leu-)] (cyclo(L[X4][dD][NMeA][dV])) is greater than or equal to 70%
## Result Not fulfilled

## Task Has CC(C)C[C@@H]1NC(=O)[C@@H](C2CCCC2)NC(=O)[C@@H]2CCCN2C(=O)[C@@H](CC(=O)O)NC(=O)[C@@H](Cc2c[nH]c3ccccc23)NC1=O [Example 81, cyclo(-DTrp-DAsp-Pro-DCpg-Leu-)] (cyclo(L[dW][dD]P[dGly(cPent)])) a recorded inhibition at 1.1 µM greater than or equal to 70%?
## Result Fulfilled

## Task Threshold query (inhibition at 1.1 µM >= 70%) on CC(C)C[C@@H]1NC(=O)[C@@H](C(C)C)NC(=O)[C@H](C(C)C)NC(=O)[C@@H](CC(=O)O)NC(=O)[C@@H](Cc2c[nH]c3ccccc23)NC1=O [Example 44, cyclo(-DTrp-DAsp-Val-DVal-Leu-)] (cyclo(L[dW][dD]V[dV]))
## Result Not fulfilled

## Task API: above_or_equal(metric=inhibition at 1.1 µM, cutoff=70%) for item CC(C)C[C@@H]1NC(=O)[C@@H](C(C)C)NC(=O)[C@H](CCCCN)NC(=O)[C@@H](CS(=O)(=O)O)NC(=O)[C@@H](Cc2c[nH]c3ccccc23)NC1=O [Example 50, cyclo(-DTrp-nCys(O3 H)-Lys-DVal-Leu-)] (cyclo(K[dV]L[dW][dCya]))
## Result Not fulfilled

## Task Exam item: decide whether the reported inhibition at 1.1 µM for CCC[C@H]1NC(=O)[C@@H]2CCCN2C(=O)[C@@H](CC(=O)O)NC(=O)[C@@H](Cc2c[nH]c3ccccc23)NC(=O)[C@H](CC(C)C)NC1=O [Example 35, cyclo(-DTrp-DAsp-Pro-DNva-Leu-)] (cyclo(L[dW][dD]P[dNva])) is at least 70%.
## Result Fulfilled

## Task Please check the record CSCC[C@H]1C(=O)N[C@H](C(C)C)C(=O)N[C@@H](CC(C)C)C(=O)N[C@H](Cc2c[nH]c3ccccc23)C(=O)N[C@H](CC(=O)O)C(=O)N1C [Example 70, cyclo(-DTrp-DAsp-MeMet-DVal-Leu-)] (cyclo(L[dW][dD][NMeM][dV])) and state if its inhibition at 1.1 µM is at or above 70%.
## Result Fulfilled

## Task Record CC[C@H](C)[C@@H]1NC(=O)[C@@H](C(C)C)NC(=O)[C@@H]2CCCN2C(=O)[C@@H](CC(=O)O)NC(=O)[C@@H](Cc2c[nH]c3ccccc23)NC1=O [Example 40, cyclo(-DTrp-DAsp-Pro-DVal-Ile-)] (cyclo(I[dW][dD]P[dV])) ; criterion: inhibition at 1.1 µM no lower than 70%. Met?
## Result Not fulfilled

## Task // inclusive: inhibition at 1.1 µM at least 70%? input: CC(C)C[C@@H]1NC(=O)[C@@H](C(C)C)NC(=O)[C@H](CC(=O)O)NC(=O)[C@@H](CC(=O)O)NC(=O)[C@@H](Cc2c[nH]c3ccccc23)NC1=O [Example 22, cyclo(-DTrp-DAsp-Asp-DVal-Leu-)] (cyclo(D[dV]L[dW][dD]))
## Result Fulfilled

## Task Hi, just wondering whether CC(C)C[C@@H]1NC(=O)[C@@H](c2cccs2)NC(=O)[C@@H]2C[C@@H](O)CN2C(=O)[C@@H](CC(=O)O)NC(=O)[C@@H](Cc2c[nH]c3ccccc23)NC1=O [Example 79, cyclo(-DTrp-DAsp-trans-Hyp-DThg-Leu-)] (cyclo([Hyp][dGly(2-thienyl)]L[dW][dD])) shows inhibition at 1.1 µM of 70% or higher.
## Result Fulfilled
